# target: T1, ROR1 Frizzled domain alone, on transduced SUP-T1 cells (human, UniProt Q01973 165-299)
# T1 construct: domain: Fz; also called Fz; ROR1-Fz domain
# T1 sequence (Q01973 165-299): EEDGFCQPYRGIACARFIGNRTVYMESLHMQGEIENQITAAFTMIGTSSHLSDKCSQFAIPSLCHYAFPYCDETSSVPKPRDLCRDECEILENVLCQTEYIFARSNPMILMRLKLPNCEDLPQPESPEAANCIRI
# assaySummary: flow cytometry, transduced SUP-T1 cells, anti-human Fc-Dylight647
observable: binding result

Clone I chimeric ROR1 antibody (antibody, V domains shown) VH: EVQLVESGGGSVQPGRSLKLSCAASGFTFSDYNMAWVRQAPKKGPEWVATITYDVHNAYYRDSVKGRFTISRDDAKSTLYLQMDSLRSEDTATYFCARPGAYWGQGTLVTVSS VL: DIQLTQSPSSMSASLGDRVSLTCQSSQGIGKYLSWYQHKPGKPPKAMIYYATKLADGVPSRFSGSRSGSDFSLTISSLESEDIAIYYCLQFDDYPWTFGGGTKLELK    no binding
Clone A chimeric ROR1 antibody (antibody, V domains shown, also called SA1) VH: QVQLQQSGTELVKPASSVRISCKASGYTLTTNYMHWIRQQPGNGLEWIGWIYPGNGNTKFNHKFDGRTTLTADKSSSIVYMQLSSLTSEDSAVYFCARSDFDYWGQGVMVTVSS VL: DIQMTQSPSSMSASLGDRVTFTCQASQDIGNNLIWFQQKPGKSPRPLMYFATSLANGVPSRFSGSRSGSDYSLTISSLESEDLADYHCLQYREYPLTFGSGTKLDLK    no binding
